Data provenance: paper PMC3407089

# target_system: α2S205Cβ2γ2 GABAA receptor (Rattus norvegicus, UniProt P18508+P23576, S233C)
# Sequence (P23576 29-451 S233C, one chain of several): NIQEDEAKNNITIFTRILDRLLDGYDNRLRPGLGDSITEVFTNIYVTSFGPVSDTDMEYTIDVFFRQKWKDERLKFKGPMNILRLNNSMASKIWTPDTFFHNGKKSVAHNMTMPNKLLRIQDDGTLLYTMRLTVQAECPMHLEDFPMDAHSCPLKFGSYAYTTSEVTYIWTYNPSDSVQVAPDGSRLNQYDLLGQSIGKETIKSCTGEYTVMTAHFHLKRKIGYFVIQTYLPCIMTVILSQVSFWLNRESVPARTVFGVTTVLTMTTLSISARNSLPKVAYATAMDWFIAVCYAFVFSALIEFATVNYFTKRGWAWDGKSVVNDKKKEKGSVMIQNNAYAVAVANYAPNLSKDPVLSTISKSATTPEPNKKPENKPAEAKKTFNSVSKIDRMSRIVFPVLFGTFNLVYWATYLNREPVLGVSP
# test: Covalent reaction of 3-NCS at the binding level (residual radioligand binding, HEK293 membranes)
# study_conditions: 3-NCS 30 min on ice, washed; residual [^3H]Ro15–1788 binding
metric_name: pEC50
// pEC50 here means minus log10 of the molar concentration (mol/L)

What does the data say about its pEC50? Entry: CN1C(=O)C(N=C=S)N=C(c2ccccc2)c2cc([N+](=O)[O-])ccc21 (stereo not shown)
5.18

* * *

# target_system: α1S205Cβ2γ2 GABAA receptor (Rattus norvegicus, UniProt P18508+P62813, S232C)
# Sequence (P62813 28-455 S232C): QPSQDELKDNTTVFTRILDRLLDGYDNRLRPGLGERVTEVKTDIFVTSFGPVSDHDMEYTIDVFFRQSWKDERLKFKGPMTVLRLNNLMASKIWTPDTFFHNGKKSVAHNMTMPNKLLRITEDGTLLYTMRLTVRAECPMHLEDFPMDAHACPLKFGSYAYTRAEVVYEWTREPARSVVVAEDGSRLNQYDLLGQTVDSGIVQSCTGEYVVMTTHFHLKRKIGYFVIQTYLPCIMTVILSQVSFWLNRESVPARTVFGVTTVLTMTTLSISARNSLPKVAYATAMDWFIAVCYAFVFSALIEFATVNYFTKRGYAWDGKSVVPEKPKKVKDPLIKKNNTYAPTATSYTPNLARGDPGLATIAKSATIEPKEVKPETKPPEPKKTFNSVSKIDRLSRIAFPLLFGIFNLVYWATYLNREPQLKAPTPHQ
# Sequence (P18508 39-466): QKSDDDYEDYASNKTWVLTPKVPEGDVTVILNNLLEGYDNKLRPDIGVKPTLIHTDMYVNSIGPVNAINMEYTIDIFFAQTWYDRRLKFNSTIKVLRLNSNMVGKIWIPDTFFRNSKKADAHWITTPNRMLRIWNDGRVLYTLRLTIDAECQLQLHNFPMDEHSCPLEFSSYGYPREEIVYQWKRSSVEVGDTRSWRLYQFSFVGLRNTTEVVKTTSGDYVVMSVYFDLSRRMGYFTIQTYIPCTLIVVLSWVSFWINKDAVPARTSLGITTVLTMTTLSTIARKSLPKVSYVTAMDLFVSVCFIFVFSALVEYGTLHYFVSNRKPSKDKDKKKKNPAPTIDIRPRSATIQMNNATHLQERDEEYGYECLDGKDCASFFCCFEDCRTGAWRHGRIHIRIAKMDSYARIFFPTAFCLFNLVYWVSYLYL
# Sequence (P63138 26-474 partner): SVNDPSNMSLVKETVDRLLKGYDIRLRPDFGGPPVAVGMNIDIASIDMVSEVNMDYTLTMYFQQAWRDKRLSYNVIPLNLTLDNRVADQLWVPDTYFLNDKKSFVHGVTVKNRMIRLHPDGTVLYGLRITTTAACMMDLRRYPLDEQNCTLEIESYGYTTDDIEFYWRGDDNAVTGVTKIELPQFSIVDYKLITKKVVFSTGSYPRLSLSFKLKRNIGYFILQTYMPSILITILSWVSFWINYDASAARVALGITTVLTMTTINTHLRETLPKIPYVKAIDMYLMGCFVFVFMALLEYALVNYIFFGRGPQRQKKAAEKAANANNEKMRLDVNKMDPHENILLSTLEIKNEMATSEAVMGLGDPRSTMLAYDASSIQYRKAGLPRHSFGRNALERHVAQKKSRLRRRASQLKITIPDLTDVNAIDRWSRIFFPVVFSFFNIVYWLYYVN
# test: Covalent reaction of 3-NCS at the binding level (residual radioligand binding, HEK293 membranes)
# study_conditions: 3-NCS 30 min on ice, washed; residual [^3H]Ro15–1788 binding
metric_name: pEC50
// field semantics: pEC50 = negative decimal log of concentration (mol/L)

State the recorded pEC50 for this entry: CN1C(=O)C(N=C=S)N=C(c2ccccc2)c2cc([N+](=O)[O-])ccc21 (stereo not shown)
6.20
